- Test system: U251
- test-description: NCI 60 cell line screen (SRB), CNS Cancer
- Format: cell-based
measured-property: Log10TGI

Ask: I would be grateful if you could share the reported Log10TGI for CC(=O)O[C@H]1C(=O)[C@@]2(C)[C@H]([C@H](OC(=O)c3ccccc3)[C@]3(O)C[C@H](OC(=O)[C@H](O)[C@@H](NC(=O)c4ccccc4)c4ccccc4)C(C)=C1C3(C)C)[C@]1(OC(C)=O)CO[C@@H]1C[C@@H]2O [Paclitaxel, paclitaxel, reference compound] .
Result: −4.32 M

Ask: COC1OC2(C)CCC3CCCC(CCOC(=O)c4cccc(C(=O)OCCC5CCCC6CCC7(C)OOC56C(OC)O7)c4)C31OO2 (centres unmarked) , same question.
Result: >−4.30 M

Ask: COC1OC2(C)CCC3CCCC(CCOCCC4CCCC5CCC6(C)OOC45C(OC)O6)C31OO2 (centres unmarked) , same question.
Result: >−4.00 M

Ask: COC1OC2(C)CCC3CCCC(CCOC(=O)c4ccc(C(=O)OCCC5CCCC6CCC7(C)OOC56C(OC)O7)cc4)C31OO2 (centres unmarked) , same question.
Result: >−4.00 M

Ask: C[C@@H]1CC[C@H]2[C@@H](C)C(=O)O[C@@H]3O[C@@]4(C)CC[C@@H]1[C@]32OO4 [QHS, reference compound] , same question.
Result: >−4.00 M

---

Answer each item with its documented Log10GI50.
- Test system: SN12C
- test-description: NCI 60 cell line screen (SRB), Renal Cancer
- Assay type: cell-based

Ask: I would be grateful if you could share the reported Log10GI50 for COC1OC2(C)CCC3CCCC(CCOCCC4CCCC5CCC6(C)OOC45C(OC)O6)C31OO2 (centres unmarked) .
Result: −5.46 M

Ask: CC(=O)O[C@H]1C(=O)[C@@]2(C)[C@H]([C@H](OC(=O)c3ccccc3)[C@]3(O)C[C@H](OC(=O)[C@H](O)[C@@H](NC(=O)c4ccccc4)c4ccccc4)C(C)=C1C3(C)C)[C@]1(OC(C)=O)CO[C@@H]1C[C@@H]2O [Paclitaxel, paclitaxel, reference compound] , same question.
Result: −9.53 M

Ask: C[C@@H]1CC[C@H]2[C@@H](C)C(=O)O[C@@H]3O[C@@]4(C)CC[C@@H]1[C@]32OO4 [QHS, reference compound] , same question.
Result: −4.21 M

Ask: COC1OC2(C)CCC3CCCC(CCOC(=O)c4cccc(C(=O)OCCC5CCCC6CCC7(C)OOC56C(OC)O7)c4)C31OO2 (centres unmarked) , same question.
Result: −5.73 M

Ask: COC1OC2(C)CCC3CCCC(CCOC(=O)c4ccc(C(=O)OCCC5CCCC6CCC7(C)OOC56C(OC)O7)cc4)C31OO2 (centres unmarked) , same question.
Result: −5.46 M

---

- Test system: A549/ATCC
- test-description: NCI 60 cell line screen (SRB), Non-Small Cell Lung Cancer
- Type: cell-based
Answer each item with its documented Log10GI50.
Reply with just the number (in M).

Ask: // map C[C@@H]1CC[C@H]2[C@@H](C)C(=O)O[C@@H]3O[C@@]4(C)CC[C@@H]1[C@]32OO4 [QHS, reference compound] to recorded Log10GI50 (system: A549/ATCC)
Result: −4.17

Ask: COC1OC2(C)CCC3CCCC(CCOCCC4CCCC5CCC6(C)OOC45C(OC)O6)C31OO2 (stereo not shown) , same question.
Result: −5.79

Ask: COC1OC2(C)CCC3CCCC(CCOC(=O)c4cccc(C(=O)OCCC5CCCC6CCC7(C)OOC56C(OC)O7)c4)C31OO2 (stereo not shown) , same question.
Result: −5.89

Ask: COC1OC2(C)CCC3CCCC(CCOC(=O)c4ccc(C(=O)OCCC5CCCC6CCC7(C)OOC56C(OC)O7)cc4)C31OO2 (stereo not shown) , same question.
Result: −5.42
